# System: proteins that co-immunoprecipitated with DUX4-CTD constructs expressed in MB135 myoblasts
# protocol_notes: LC-MS of proteins co-immunoprecipitated with DUX4-CTD (Table 1) and western validation
# Assay type: binding, human
# Parameters: key: peptide-spectrum matches (PSMs) per protein
# test_settings: bait longCTD; experiment 3, IFNg + Dox

molecule	3. + IFNg + Dox longCTD
Q96MG2 (protein, UniProt Q96MG2 1-331, looked up, full-length) MSMTTRAWEELDGGLGSCQALEDHSALAETQEDRASATPRLADSGSVPHDSQVAEGPSVDTRPKKMEKEPAARGTPGTGKERLKAGASPRSVPARKKAQTAPPLQPPPPPPALSEELPWGDLSLNKCLVLASLVALLGSAFQLCRDAVPGEAALQARVPEPWVPPSSAPREPSSPLPKFEAQAPPSAPPAPRAEAEVRPKIPGSREAAENDEEEPGEATGEAVREDRVTLADRGPKERPRREGKPRKEKPRKEERPKKERPRKEERPRAAREPREALPQRWESREGGHRPWARDSRDAEPRKKQAWVSPRRPDEEQRPGSRQKLRAGKGRD	10
